Reported TGI values for a set of compounds
- Test system: SK-OV-3 ovarian
- assay.info: NCI tumour cell line growth inhibition, 48 h
Write the number in µM without appending the unit.

Solved entries (count: 2):
{"molecular.string": "CN(C)CCNc1cccc2sc3ccc(O)cc3c(=O)c12", "target.or.test.system": "SK-OV-3 ovarian", "unit.info": "µM", "measurement": 14.4}
{"molecular.string": "O=[N+]([O-])/C=C\\c1ccc2c(c1)OCO2", "target.or.test.system": "SK-OV-3 ovarian", "unit.info": "µM", "measurement": 24.4}

Now for the compound whose TGI we want.
Report value only: TGI, SK-OV-3 ovarian, "Cc1ccc2c(c1)sc(-c1ccc(N(C)C)cc1)[n+]2C" 7.91

###

- System: SK-OV-3 ovarian
- assay.info: NCI tumour cell line growth inhibition, 48 h
Reported TGI values for a set of molecules

{"molecule": "CC1=C(C#N)S(=O)(=O)c2c(oc(C)c2C)N1", "target.or.test.system": "SK-OV-3 ovarian", "TGI": "> 100 µM"}
{"molecule": "O=c1c(OC/C(=N/O)c2ccccc2)c(-c2ccccc2)oc2ccccc12", "target.or.test.system": "SK-OV-3 ovarian", "TGI": "> 50 µM"}

Provide measured TGI value, entry: "CN(C)CCNC(=O)c1cc([N+](=O)[O-])cc2ccc(-c3ccccc3)nc12" 25.5 µM

Specify TGI for c1cncc(C2c3[nH]c4ccccc4c3CCN2CCN2CCCCC2)c1 (configuration not stated) and stop. > 100 µM

Let me know recorded TGI for CC(NCCS(=O)(=O)O)C(=O)O (configuration not stated) , thanks. > 100 µM

###

- Test system: HCC-2998 colon
- assay.info: NCI tumour cell line growth inhibition, 48 h
I'd appreciate it if you could label each record using TGI and these ranges: low group (below 10 µM), middle group (10 µM to below 30 µM), high group (30 µM or more)

{"compound": "COc1cc2c(cc1OCCCC(=O)Nc1cc(C(=O)Nc3cc(C(=O)NCCCN(C)C)n(C)n3)n(C)n1)N=CC1CCCN1C2=O (stereo not given)", "label.class": "high group"}
{"compound": "O=Nc1c2cccnc2n2nnc3ccc(Cl)cc3c12", "label.class": "low group"}
{"compound": "Cc1ccc(C)c(NC(=O)/C(=N\\NC(N)=S)C(C#N)c2ccccc2)c1 (stereo not given)", "label.class": "high group"}

Returns: class label. Input: "Cc1nn(-c2ccccc2)c(C)c1/C=N/NC(=O)c1sc(=S)n(-c2ccccc2)c1N" middle group

Into which bin does this compound go? "CCN(CC)C(=S)SSC1CCCCC1" high group

In plain terms, what class is "CC1=Nn2c(nc3sc4c(c3c2=O)CCCC4)SC1" ? high group

###

- Test system: COLO 205 colon
- assay.info: NCI tumour cell line growth inhibition, 48 h
# TGI per entry

{"compound": "CC1(C)C2CCC1C(=O)C(C=O)C2 (stereo not given)", "TGI": "> 100 µM"}
{"compound": "CCCCCCCCCCCCC(SCCNC(=O)CCNC(=O)C(O)C(C)(C)COP(=O)(O)OP(=O)(O)OCC1OC(n2cnc3c(N)ncnc32)C(O)C1OP(=O)(O)O)C(=O)NCC(N)=O (stereo not given)", "TGI": "> 100 µM"}
{"compound": "O=C(CSC1=NCCN1)c1ccccc1", "TGI": "> 100 µM"}
{"compound": "CCCCCC(C)C[C@H]1CO[C@H](c2ccc[nH]2)N[C@H]1C(=O)OC (stereo not given in full)", "TGI": "> 100 µM"}

# evaluate next
Give me measured TGI, please, for this compound: C=C1CCCCCCCCCCC1S(=O)c1ccccc1 (stereo not given) 57.3 µM
